system: Ps. aeruginosa B; test: MIC, Agar (Mueller Hinton) Dilution Method; assay type: cell-based; settings: Pseudomonas aeruginosa, Gram Negative
Structures can show the parent of a compound that is named as a salt.
MEASURED_QUANTITY: MIC (µg/mL)

{"COMPOUND": "N#CCC(=O)N[C@@H]1C(=O)N2C(C(=O)O)=C(COC(=O)N[C@@H]3CCN(c4c(F)cc5c(=O)c(C(=O)O)cn(C6CC6)c5c4F)C3)CS[C@H]12 [Formula Ibb, monosodium salt]", "MEASURED_QUANTITY": "MIC", "MEAS_VALUE": 1}
{"COMPOUND": "N#CCC(=O)N[C@@H]1C(=O)N2C(C(=O)O)=C(COC(=O)NC3CCN(c4c(F)cc5c(=O)c(C(=O)O)cn(C6CC6)c5c4F)C3)CS[C@H]12 (stereo partly shown) [Formula Ib, monosodium salt]", "MEASURED_QUANTITY": "MIC", "MEAS_VALUE": 0.25}
{"COMPOUND": "O=C(Cc1cccs1)N[C@@H]1C(=O)N2C(C(=O)O)=C(COC(=O)N3CCN(c4c(F)cc5c(=O)c(C(=O)O)cn(C6CC6)c5c4F)CC3)CS[C@H]12", "MEASURED_QUANTITY": "MIC", "MEAS_VALUE": 0.5}
{"COMPOUND": "N#CCC(=O)N[C@@H]1C(=O)N2C(C(=O)O)=C(COC(=O)N[C@H]3CCN(c4c(F)cc5c(=O)c(C(=O)O)cn(C6CC6)c5c4F)C3)CS[C@H]12 [Formula Iba, monosodium salt]", "MEASURED_QUANTITY": "MIC", "MEAS_VALUE": 0.25}

###

Where a name gives a salt, the structure may show the parent alone.
Endpoint: MIC. System: E. coli B. Items follow.

{"COMPOUND": "O=C(Cc1cccs1)N[C@@H]1C(=O)N2C(C(=O)O)=C(COC(=O)N3CCN(c4c(F)cc5c(=O)c(C(=O)O)cn(C6CC6)c5c4F)CC3)CS[C@H]12", "LT_GT_EQ": "=", "MIC (µg/mL)": 0.0313}
{"COMPOUND": "N#CCC(=O)N[C@@H]1C(=O)N2C(C(=O)O)=C(COC(=O)NC3CCN(c4c(F)cc5c(=O)c(C(=O)O)cn(C6CC6)c5c4F)C3)CS[C@H]12 (stereo partly shown) [Formula Ib, monosodium salt]", "LT_GT_EQ": "=", "MIC (µg/mL)": 0.0625}
{"COMPOUND": "N#CCC(=O)N[C@@H]1C(=O)N2C(C(=O)O)=C(COC(=O)N[C@@H]3CCN(c4c(F)cc5c(=O)c(C(=O)O)cn(C6CC6)c5c4F)C3)CS[C@H]12 [Formula Ibb, monosodium salt]", "LT_GT_EQ": "=", "MIC (µg/mL)": 0.0313}
{"COMPOUND": "N#CCC(=O)N[C@@H]1C(=O)N2C(C(=O)O)=C(COC(=O)N[C@H]3CCN(c4c(F)cc5c(=O)c(C(=O)O)cn(C6CC6)c5c4F)C3)CS[C@H]12 [Formula Iba, monosodium salt]", "LT_GT_EQ": "≤", "MIC (µg/mL)": 0.0156}

###

tested on: Ps. aeruginosa K799/WT; experiment: MIC, Agar (Mueller Hinton) Dilution Method; assay type: cell-based; settings: Pseudomonas aeruginosa, Gram Negative
Where a name gives a salt, the structure may show the parent alone.

{"COMPOUND": "N#CCC(=O)N[C@@H]1C(=O)N2C(C(=O)O)=C(COC(=O)NC3CCN(c4c(F)cc5c(=O)c(C(=O)O)cn(C6CC6)c5c4F)C3)CS[C@H]12 (stereo partly shown) [Formula Ib, monosodium salt]", "MIC, µg/mL": 0.5}
{"COMPOUND": "O=C(Cc1cccs1)N[C@@H]1C(=O)N2C(C(=O)O)=C(COC(=O)N3CCN(c4c(F)cc5c(=O)c(C(=O)O)cn(C6CC6)c5c4F)CC3)CS[C@H]12", "MIC, µg/mL": 2}
{"COMPOUND": "N#CCC(=O)N[C@@H]1C(=O)N2C(C(=O)O)=C(COC(=O)N[C@H]3CCN(c4c(F)cc5c(=O)c(C(=O)O)cn(C6CC6)c5c4F)C3)CS[C@H]12 [Formula Iba, monosodium salt]", "MIC, µg/mL": 0.5}
{"COMPOUND": "N#CCC(=O)N[C@@H]1C(=O)N2C(C(=O)O)=C(COC(=O)N[C@@H]3CCN(c4c(F)cc5c(=O)c(C(=O)O)cn(C6CC6)c5c4F)C3)CS[C@H]12 [Formula Ibb, monosodium salt]", "MIC, µg/mL": 1}
